Data provenance is patent US20130165368A1.

tested on: MRSA EMRSA 15 21698/98; experiment: MIC agar dilution, MRSA strain 41; type: cell-based; conditions: Staphylococcus aureus, 48 hrs
Recorded measurements of MIC, one per entry
Write it as a number; the unit µM goes unstated.

# example entries with known answers
CCCCCCCCCCCCOCCO | 220
CCCCCCCCCCCCOCCOCCOCCO | 110
CCCCCCCCCCCCOCCOCCO | 110
CCCCCCCCCCCCOCCOCCOCCOCCOCCOCCO | 110

Report MIC under test system MRSA EMRSA 15 21698/98 for CCCCCCCCCCCCOCCOCCOCCOCCO . 55

Recall the reported MIC of CCCCCCCCCCCCOCCOCCOCCOCCOCCO when tested on MRSA EMRSA 15 21698/98. 110
